Test system: L1210 leukemia ip in BDF1 mice, survival T/C
Experiment: NCI In Vivo Anticancer Drug Screen. Data for tumor model L1210 Leukemia (intraperitoneal) in B6D2F1 (BDF1) mice
Settings: endpoint: mean survival time; dose: 75.0 mg/kg/injection; schedule: Q01DX001 (ip); vehicle: saline; higher = longer survival
Method: The antitumor activity of compounds was measured in mice bearing transplantable tumors. Survival or tumor size were measured and the results are expressed as the measurement made in the treated group (T) divided by the measurement made in the vehicle treated control group (C). The tumor model used in this assay is L1210 Leukemia (intraperitoneal) in B6D2F1 (BDF1) mice
Toxic doses and inconclusive results are not listed.
measured.parameter: T/C

// T/C value for C1C2CC3C1C3/C2=N\N=C1/C2CC3C(C2)C13 : 101 % of control

Per the records, this compound ( Cc1cc(C)[n+]2ccccc2n1 ) has T/C equal to 102 % of control

Reported T/C of CC(C)/C(=N\[N+](C)(C)C)c1ccccc1 : 103 % of control

T/C for Cc1nc(N=C(N)N)nc2ccc(Cl)cc12 is 101 % of control

Measured T/C, COc1ccc2c3c1OC1C(C)=CCC4C(C2)N(C)CCC314 (centres undefined) : 101 % of control

Recorded T/C (compound C=CCC1(OC(C)=O)CCN(C)CC1 ): 113 % of control

Entry under test: O=S(=O)(O)SCCCNCCCNCCCSS(=O)(=O)O . Its T/C was 102 % of control

According to the records, this compound COc1cc(CCN)cc(OC)c1OC displays T/C of 104 % of control

Sample CCN(CC)CCN(C)C(=O)C(=O)c1ccccc1 ; T/C observed: 98 % of control

###

Test system: L1210 leukemia ip in BDF1 mice, survival T/C
Assay: NCI In Vivo Anticancer Drug Screen. Data for tumor model L1210 Leukemia (intraperitoneal) in B6D2F1 (BDF1) mice
Settings: endpoint: mean survival time; dose: 100.0 mg/kg/injection; schedule: Q04DX003 (ip); vehicle: saline
Method: The antitumor activity of compounds was measured in mice bearing transplantable tumors. Survival or tumor size were measured and the results are expressed as the measurement made in the treated group (T) divided by the measurement made in the vehicle treated control group (C). The tumor model used in this assay is L1210 Leukemia (intraperitoneal) in B6D2F1 (BDF1) mice
Inconclusive results and toxic doses are left out. No stated cut-off is given here; in the data, active means T/C of 150% or more; inactive means T/C below 125%.
Respond with a class label; see true = active, false = inactive

**Q:** Field: outcome | Entry: CC(=O)n1cc(F)c(=O)[nH]c1=O
**A:** true

**Q:** Test call for this compound, please: O=C(O)C1CC(c2ccc(Cl)cc2)OC1=O (configuration not stated)
**A:** false

**Q:** Which outcome was entered for the compound CCOC(=O)NC(=O)C1C2CC3OC(=O)C1C3C2 (configuration not stated) in this test?
**A:** false

**Q:** Record request — test call for [Co].[NH-]CC[N-]CCO.[NH-]CC[N-]CCO
**A:** false

**Q:** Given O=c1cc(C[n+]2ccccc2)[nH]c(=O)[nH]1 , state the outcome it received in this test.
**A:** false

**Q:** Which outcome was entered for the compound O=C(O)CCc1ccccc1 in this test?
**A:** false

**Q:** Kindly provide the recorded test outcome for the following compound: COc1ccc(OC)c(CCN)c1
**A:** false

**Q:** Per the records of this test, what outcome belongs to CCCCCCCCCOCCOCCOCCN ?
**A:** false

**Q:** What outcome does the record of this test show for Cc1cc(Cl)ccc1NC(=O)Nc1c(Oc2ccc(Cl)cc2)ccc(Cl)c1S(=O)(=O)O ?
**A:** false

**Q:** Identify the outcome logged in this assay for the compound shown: COc1ccc(CCNC(=S)NCCc2ccc(OC)c(OC)c2)cc1OC
**A:** false

**Q:** Returns: the outcome recorded for C/C(=N/N(C)C)c1cccc(C(F)(F)F)c1 in this assay.
**A:** false

**Q:** What did the test return for O=[N+]([O-])c1ccc(/C=N/Nc2ccnc3cc(Cl)ccc23)s1 ?
**A:** false
